Sourced from patent US6596719B1

Biological target: human recombinant ETB receptors (Homo sapiens)
Construct: expressed in transfected cells; host or cells: CHO cells (microsomal membranes)
Sequence (P24530 27-442): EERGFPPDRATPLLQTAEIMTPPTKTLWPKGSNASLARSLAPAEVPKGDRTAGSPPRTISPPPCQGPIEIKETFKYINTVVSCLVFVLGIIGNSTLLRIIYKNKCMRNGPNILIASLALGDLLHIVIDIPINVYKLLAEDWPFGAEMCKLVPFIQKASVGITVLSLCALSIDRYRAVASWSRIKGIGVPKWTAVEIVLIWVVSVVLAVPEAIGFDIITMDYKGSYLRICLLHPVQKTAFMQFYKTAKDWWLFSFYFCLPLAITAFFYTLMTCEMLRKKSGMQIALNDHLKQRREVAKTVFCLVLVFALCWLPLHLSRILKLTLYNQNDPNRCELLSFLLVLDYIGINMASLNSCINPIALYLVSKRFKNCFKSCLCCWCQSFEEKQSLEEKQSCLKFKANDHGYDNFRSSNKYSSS
Experiment: Inhibition of endothelin binding to membranes from CHO cells carrying human ET receptors (ETB)
Description: 1) Inhibition of Endothelin Binding to Membranes from CHO Cells Carrying Human ET Receptors: For competition binding studies, membranes of CHO cells expressing human recombinant ETA or ETB receptors were used. Microsomal membranes from recombinant CHO cells were prepared and the binding assay made as previously described (Breu V., et al, FEBS Lett 1993; 334:210). […]
Give IC50 for every item shown.
Quick reminder: number only, in nM, skip the unit.

Q: Find the measured IC50: item CCCS(=O)(=O)NCCOc1nc(-c2cc(OC)c(OC)c(OC)c2)nc(NS(=O)(=O)c2ccc(C(C)C)cn2)c1Oc1ccccc1OC , target or system human recombinant ETB receptors (Homo sapiens).
A: 24.5

Q: For the record CCS(=O)(=O)NCCOc1nc(SC)nc(NS(=O)(=O)c2ccc(C(C)(C)C)cc2)c1Oc1ccccc1OC [Example 36f] , what value of IC50 is listed for human recombinant ETB receptors (Homo sapiens)?
A: 1210

Q: Which measured IC50 belongs to COc1ccccc1Oc1c(NS(=O)(=O)c2ccc(C(C)(C)C)cc2)nc(-c2ncccn2)nc1OCCNS(=O)(=O)C(F)(F)F , tested on human recombinant ETB receptors (Homo sapiens)?
A: 356

Q: Enter reported IC50 observed with human recombinant ETB receptors (Homo sapiens) for COc1ccccc1Oc1c(NS(=O)(=O)c2ccc(C(C)(C)C)cc2)ncnc1OCCNS(=O)(=O)c1ccc(C)cc1
A: 1040

---

Target: ETB receptors (Rattus norvegicus, UniProt P21451)
Sequence (P21451 27-442): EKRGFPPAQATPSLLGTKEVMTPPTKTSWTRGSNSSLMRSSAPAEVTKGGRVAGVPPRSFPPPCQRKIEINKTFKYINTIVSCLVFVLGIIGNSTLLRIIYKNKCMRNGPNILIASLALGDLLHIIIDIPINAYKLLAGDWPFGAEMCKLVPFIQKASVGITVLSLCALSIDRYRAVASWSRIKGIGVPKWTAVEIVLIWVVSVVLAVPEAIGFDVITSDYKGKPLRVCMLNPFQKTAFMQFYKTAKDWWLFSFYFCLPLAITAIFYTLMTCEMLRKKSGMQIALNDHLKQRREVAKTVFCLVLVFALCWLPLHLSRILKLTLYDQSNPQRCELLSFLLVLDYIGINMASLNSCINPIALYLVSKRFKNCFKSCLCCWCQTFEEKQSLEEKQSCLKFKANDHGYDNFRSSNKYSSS
Experiment: Inhibition of sarafotoxin S6c-induced contractions on isolated rat tracheal rings
Conditions: rat tracheal rings, contraction induced by sarafotoxin S6c, 10 min incubation
ASSAY READOUT: pA2 value ETB
Provide a numeric answer; units are not to be included.

Q: Quick check: pA2 value ETB of COc1ccccc1Oc1c(NS(=O)(=O)c2ccc(C(C)C)cn2)nc(-c2cc(OC)c(OC)c(OC)c2)nc1OCCNS(=O)(=O)c1ccc(C)cc1 ?
A: 7.46

Q: Endpoint output: pA2 value ETB of COc1ccccc1Oc1c(NS(=O)(=O)c2ccc(C(C)(C)C)cc2)nc(C2CC2)nc1OCCCNS(=O)(=O)c1cccs1 . Value?
A: 7.95

Q: Suppose we examine the compound COc1ccccc1Oc1c(NS(=O)(=O)c2ccc(C(C)C)cn2)nc(N2CCOCC2)nc1OCCNS(=O)(=O)c1ccc(C)cc1 ; what pA2 value ETB value has been reported?
A: 7.3

---

Biological target: human recombinant ETA receptors (Homo sapiens, UniProt P25101)
Construct: expressed in transfected cells; host or cells: CHO cells (microsomal membranes)
Sequence (P25101 21-427): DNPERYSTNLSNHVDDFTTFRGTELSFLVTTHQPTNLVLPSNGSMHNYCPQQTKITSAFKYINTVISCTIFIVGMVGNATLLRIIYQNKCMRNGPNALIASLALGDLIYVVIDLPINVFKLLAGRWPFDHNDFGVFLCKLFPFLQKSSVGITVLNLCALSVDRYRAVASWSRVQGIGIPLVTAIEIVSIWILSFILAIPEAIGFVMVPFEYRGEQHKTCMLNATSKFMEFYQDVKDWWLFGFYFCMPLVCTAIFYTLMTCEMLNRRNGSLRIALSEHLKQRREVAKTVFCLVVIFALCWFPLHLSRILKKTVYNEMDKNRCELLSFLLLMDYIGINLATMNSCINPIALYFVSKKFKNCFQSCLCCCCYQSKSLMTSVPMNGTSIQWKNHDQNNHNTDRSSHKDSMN
Assay: Inhibition of endothelin binding to membranes from CHO cells carrying human ET receptors (ETA)
Task for the reader: assign each of the following compounds its reported pIC50.
Scale for pIC50: -log10 of concentration given in mol/L; no unit attached.

Q: Fill blank: measured pIC50 of the compound COc1ccccc1Oc1c(NS(=O)(=O)c2ccc(C(C)C)cn2)nc(-c2ccncc2)nc1OCCNS(=O)(=O)c1cccs1 is ____.
A: 6.29

Q: GET /values?readout=pIC50&item= COc1ccccc1Oc1c(NS(=O)(=O)c2ccc(C(C)(C)C)cc2)nc(SC)nc1OCCNS(=O)(=O)c1ccc(C)cc1
A: 5.25

Q: Give the measured pIC50 of CCS(=O)(=O)NCCOc1nc(-c2ncccn2)nc(NS(=O)(=O)c2ccc(C(C)C)cn2)c1Oc1ccccc1OC .
A: 6.55

Q: Any idea what pIC50 was measured for CCS(=O)(=O)NCCOc1ncnc(NS(=O)(=O)c2ccc(C(C)(C)C)cc2)c1Oc1ccccc1OC ?
A: 6.39

Q: Which measured pIC50 value corresponds to COc1ccccc1Oc1c(NS(=O)(=O)c2ccc(C(C)C)cn2)nc(C(F)(F)F)nc1OCCNS(=O)(=O)c1cccs1 ?
A: 5.62

Q: Requested read-out: pIC50. Entry: COc1ccccc1Oc1c(NS(=O)(=O)c2ccc(C(C)(C)C)cc2)nc(C2CC2)nc1OCCNS(=O)(=O)C(C)C
A: 7.12

Q: Data request, read-out pIC50, for CCS(=O)(=O)NCCOc1nc(N2CCOCC2)nc(NS(=O)(=O)c2ccc(C(C)(C)C)cc2)c1Oc1ccccc1OC
A: 6.98
